assay: Solubility of the compound at pH 7; assay type: physicochemical; conditions: buffer
Reported endpoint: solubility (µM)

Query: Returns the measured solubility for the input molecule. Input: O=C(O)CC1CCC2(CCN(c3ccc(-c4nc5cc(C(F)(F)F)ccc5[nH]4)cn3)CC2)O1 (single isomer, unassigned; form 2)
Reply: 147

Query: How about this molecule: O=C(O)CC1CCC2(CCN(c3ccc(-c4nc5cc(C(F)(F)F)ccc5[nH]4)cn3)CC2)O1 (single isomer, unassigned; form 1)
Reply: 190

Query: How about this molecule: O=C(O)CC1CCOC2(CCN(c3ccc(-c4nc5cc(C(F)(F)F)ccc5[nH]4)cn3)CC2)C1 (stereo in doubt; form 1)
Reply: 168

Query: How about this molecule: O=C(O)CC1CCOC2(CCN(c3ccc(-c4nc5cc(C(F)(F)F)ccc5[nH]4)cn3)CC2)C1 (stereo in doubt; form 2)
Reply: 174

----------
assay: Lipophilicity, log D of the compound; assay type: physicochemical; conditions: octanol/water; read-out: logD
Reported endpoint: logD

Query: Returns the measured logD for the input molecule. Input: O=C(O)CC1CCC2(CCN(c3ccc(-c4nc5cc(C(F)(F)F)ccc5[nH]4)cn3)CC2)O1 (racemic)
Reply: 1.55

Query: How about this molecule: O=C(O)CC1CCOC2(CCN(c3ccc(-c4nc5cc(C(F)(F)F)ccc5[nH]4)cn3)CC2)C1 (racemic)
Reply: 1.43

Query: How about this molecule: O=C(O)C[C@@H]1COC2(CCN(c3ccc(-c4nc5cc(C(F)(F)F)ccc5[nH]4)cn3)CC2)C1
Reply: 1.44

Query: How about this molecule: O=C(O)C1CCC2(CCN(c3ccc(-c4nc5cc(C(F)(F)F)ccc5[nH]4)cn3)CC2)OC1 (stereo not given)
Reply: 1.52

Query: How about this molecule: O=C(O)CC1CCC2(CCN(c3ccc(-c4nc5cc(C(F)(F)F)ccc5[nH]4)cn3)CC2)OC1 (racemic)
Reply: 1.52

Query: How about this molecule: O=C(O)C1CCC2(CCN(c3ccc(-c4nc5cc(C(F)(F)F)ccc5[nH]4)cn3)CC2)CO1 (stereo not given)
Reply: 1.54

Query: How about this molecule: O=C(O)CC1COC2(CCN(c3ccc(-c4nc5cc(C(F)(F)F)ccc5[nH]4)cn3)CC2)C1 (racemic)
Reply: 1.51

Query: How about this molecule: O=C(O)C[C@H]1COC2(CCN(c3ccc(-c4nc5cc(C(F)(F)F)ccc5[nH]4)cn3)CC2)C1
Reply: 1.45

Query: How about this molecule: O=C(O)CN1CCC2(CC1)CCN(c1ccc(-c3nc4cc(C(F)(F)F)ccc4[nH]3)cn1)CC2
Reply: 1.38

Query: How about this molecule: O=C(O)CC1CCC2(CC1)CCN(c1ccc(-c3nc4cc(C(F)(F)F)ccc4[nH]3)cn1)CC2
Reply: 1.76

----------
assay: Lipophilicity, log D of the compound; assay type: physicochemical; conditions: octanol/water
Reported endpoint: logD

Query: Returns the measured logD for the input compound. Input: O=C(O)CC1CCOC2(CCN(c3ccc(-c4nc5cc(C(F)(F)F)ccc5[nH]4)cn3)CC2)C1 (stereo in doubt; form 2)
Reply: 1.47

Query: How about this compound: O=C(O)CC1CCOC2(CCN(c3ccc(-c4nc5cc(C(F)(F)F)ccc5[nH]4)cn3)CC2)C1 (stereo in doubt; form 1)
Reply: 1.48

Query: How about this compound: O=C(O)CC1CCC2(CCN(c3ccc(-c4nc5cc(C(F)(F)F)ccc5[nH]4)cn3)CC2)O1 (single isomer, unassigned; form 2)
Reply: 1.58

Query: How about this compound: O=C(O)CC1CCC2(CCN(c3ccc(-c4nc5cc(C(F)(F)F)ccc5[nH]4)cn3)CC2)O1 (single isomer, unassigned; form 1)
Reply: 1.52

----------
pIC50: −log10 of the molar value.
// Cytochrome P450 2C9 (Homo sapiens) pIC50 records
Reported endpoint: pIC50

Solved cases below.
Query: Returns the measured pIC50 for the input compound. Input: O=C(O)CC1CCC2(CC1)CCN(c1ccc(-c3nc4cc(C(F)(F)F)ccc4[nH]3)cn1)CC2
Reply: 4.97

Query: How about this compound: O=C(O)CC1CCC2(CCN(c3ccc(-c4nc5cc(C(F)(F)F)ccc5[nH]4)cn3)CC2)O1 (single isomer, unassigned; form 2)
Reply: 4.40

[A] O=C(O)CC1CCOC2(CCN(c3ccc(-c4nc5cc(C(F)(F)F)ccc5[nH]4)cn3)CC2)C1 (stereo in doubt; form 2)
[B] O=C1OC2(CCN(c3ccc(-c4nc5cc(Cl)ccc5[nH]4)cn3)CC2)c2ncccc21
Query: Which one would you say has the larger pIC50 value: A , or B ? Which one? Tell me its label.
Reply: B

----------
Collected solubility values appear next to each entry.
test: Solubility of the compound at pH 2; assay type: physicochemical; conditions: buffer, read-out: solubility

Query: Returns the measured solubility for the input compound. Input: O=C1OC2(CCN(c3ccc(-c4nc5cc(Cl)ccc5[nH]4)cn3)CC2)c2ncccc21
Reply: < 10 µM

Query: How about this compound: O=C(O)CC1CCC2(CC1)CCN(c1ccc(-c3nc4cc(C(F)(F)F)ccc4[nH]3)cn1)CC2
Reply: < 4 µM

More entries:
Query: Returns the measured solubility for the input compound. Input: O=C(O)c1ccc2c(c1)C(=O)OC21CCN(c2ccc(-c3nc4cc(C(F)(F)F)ccc4[nH]3)cn2)CC1
Reply: < 10 µM
